Record: IC50 reported on UniProtKB P28845.
Sequence (P28845 whole entry): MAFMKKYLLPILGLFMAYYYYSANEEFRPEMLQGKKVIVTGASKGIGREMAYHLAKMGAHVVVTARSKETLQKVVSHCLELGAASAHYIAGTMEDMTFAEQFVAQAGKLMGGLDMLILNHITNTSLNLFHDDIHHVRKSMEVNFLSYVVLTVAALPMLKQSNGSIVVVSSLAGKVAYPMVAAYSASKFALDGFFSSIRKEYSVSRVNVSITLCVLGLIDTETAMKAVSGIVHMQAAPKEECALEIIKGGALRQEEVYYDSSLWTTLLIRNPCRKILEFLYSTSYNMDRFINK
measured metric: IC50

* CCOc1ccc(-c2c(C(=O)N3CCCC4CCCCC43)cnn2C)c(Cl)c1 (stereo not drawn) | 0.021 µM
* CCC1CCCCN1C(=O)c1cnn(C)c1-c1ccccc1 (stereo not drawn) | 0.26 µM
* Cn1ncc(C(=O)N2CCCC3CCCCC32)c1-c1ccc(CO)cc1 (stereo not drawn) | 0.121 µM
